// data source = patent US20240309103A1

target of assay: T1, mNPR1-mFc (mouse)
T1 construct: also called mouse NPR1 extracellular domain expressed with a C-terminal mouse IgG2a
T1 chain: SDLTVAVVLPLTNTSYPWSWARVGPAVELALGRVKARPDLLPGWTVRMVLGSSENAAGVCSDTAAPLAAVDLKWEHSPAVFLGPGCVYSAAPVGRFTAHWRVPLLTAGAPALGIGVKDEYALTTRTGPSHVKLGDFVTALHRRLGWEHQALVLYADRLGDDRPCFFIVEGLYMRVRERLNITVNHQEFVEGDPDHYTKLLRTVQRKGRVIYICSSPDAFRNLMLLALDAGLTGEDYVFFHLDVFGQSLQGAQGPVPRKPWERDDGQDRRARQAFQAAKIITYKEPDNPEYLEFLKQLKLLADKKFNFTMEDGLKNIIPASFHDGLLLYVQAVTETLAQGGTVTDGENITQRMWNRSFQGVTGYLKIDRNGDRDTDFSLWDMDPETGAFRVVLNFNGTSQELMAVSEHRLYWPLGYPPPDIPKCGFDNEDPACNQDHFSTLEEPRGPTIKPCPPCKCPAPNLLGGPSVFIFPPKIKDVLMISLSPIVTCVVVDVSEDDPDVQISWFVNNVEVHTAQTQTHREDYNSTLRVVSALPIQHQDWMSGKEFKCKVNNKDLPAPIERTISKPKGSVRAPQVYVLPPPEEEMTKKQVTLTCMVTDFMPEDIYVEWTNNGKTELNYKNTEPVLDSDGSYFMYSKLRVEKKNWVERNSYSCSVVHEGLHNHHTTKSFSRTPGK
assay notes: SPR Biacore, mAb captured by anti-human Fc, 25C
Item-by-item account of 100 nM Ag Bound (RU)
Answer format: numeric, RU implied, no suffix.

I am curious: what 100 nM Ag Bound (RU) value has been reported for mAb25491 (antibody, human IgG4, V domains shown) VH: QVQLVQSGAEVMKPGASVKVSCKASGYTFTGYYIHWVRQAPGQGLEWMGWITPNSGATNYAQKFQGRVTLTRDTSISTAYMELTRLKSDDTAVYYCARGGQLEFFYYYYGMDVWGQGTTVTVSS VL: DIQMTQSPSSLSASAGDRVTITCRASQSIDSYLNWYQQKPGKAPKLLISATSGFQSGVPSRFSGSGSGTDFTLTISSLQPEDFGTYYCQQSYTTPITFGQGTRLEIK ?
1

I am curious: what 100 nM Ag Bound (RU) value has been reported for mAb22035 (antibody, human IgG4, V domains shown) VH: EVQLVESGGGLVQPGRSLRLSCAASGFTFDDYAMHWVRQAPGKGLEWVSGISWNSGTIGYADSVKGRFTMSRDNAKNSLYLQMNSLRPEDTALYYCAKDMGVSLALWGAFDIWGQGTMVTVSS VL: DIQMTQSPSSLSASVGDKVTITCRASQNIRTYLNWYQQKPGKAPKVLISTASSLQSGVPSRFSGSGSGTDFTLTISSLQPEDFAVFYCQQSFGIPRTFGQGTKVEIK ?
-1

I am curious: what 100 nM Ag Bound (RU) value has been reported for mAb22809 (antibody, human IgG4, V domains shown) VH: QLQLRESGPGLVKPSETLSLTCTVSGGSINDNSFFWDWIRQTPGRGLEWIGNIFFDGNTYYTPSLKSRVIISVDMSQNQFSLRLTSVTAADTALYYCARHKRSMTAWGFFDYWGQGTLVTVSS VL: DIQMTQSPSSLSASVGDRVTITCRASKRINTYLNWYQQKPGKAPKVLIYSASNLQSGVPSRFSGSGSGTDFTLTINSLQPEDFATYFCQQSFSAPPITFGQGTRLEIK ?
0

I am curious: what 100 nM Ag Bound (RU) value has been reported for mAb22033 (antibody, human IgG4, V domains shown) VH: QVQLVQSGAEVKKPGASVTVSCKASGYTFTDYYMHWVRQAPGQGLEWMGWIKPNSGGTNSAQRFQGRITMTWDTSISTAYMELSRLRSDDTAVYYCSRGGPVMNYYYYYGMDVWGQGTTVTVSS VL: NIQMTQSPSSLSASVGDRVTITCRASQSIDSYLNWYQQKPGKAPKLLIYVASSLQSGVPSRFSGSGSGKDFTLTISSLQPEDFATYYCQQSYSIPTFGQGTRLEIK ?
0
